# Tested on: IFN-γ
# experiment.summary: Concanavalin-A-induced IFN-γ production from hPBMC
# Type: cell-based
# test.settings: Homo sapiens; Con-A-induced production from hPBMCs, 18 h

molecule | result.unit | IC50
C/C=C/C(O)C(C)/C=C/C(=N\O)C(C)C(O)C(C)C1OC(=O)/C(OC)=C/C(C)=C/C(C)C(O)C(CC)C(O)C(C)C/C(C)=C/C=C/C1OC (stereo not shown) | µM | 0.2

====

# Tested on: IL-6
# experiment.summary: Screening in LPS stimulated THP-1 cells: IL-6
# Format: cell-based
# test.settings: Homo sapiens, 24 h, ELISA
Field 'label' (enum: true / false). Set to true when IC50 is strictly under 100 nM; else false.

compound | classification
C/C=C/C(O)C(C)/C=C/C(=N\O)C(C)C(O)C(C)C1OC(=O)/C(OC)=C/C(C)=C/C(C)C(O)C(CC)C(O)C(C)C/C(C)=C/C=C/C1OC (stereo not shown) | true
C/C=C/C(O)C(C)/C=C/C(=O)NC(C)C(O)C(C)C1OC(=O)/C(OC)=C/C(C)=C/C(C)C(O)C(CC)C(O)C(C)C/C(C)=C/C=C/C1OC (stereo not shown) | true
C/C=C/C(O)C(C)/C=C/C(=NOCC(=O)N1CCN(C)CC1)C(C)C(O)C(C)C1OC(=O)/C(OC)=C/C(C)=C/C(C)C(O)C(CC)C(O)C(C)C/C(C)=C/C=C/C1OC (stereo in doubt) | false
C/C=C/C(O)C(C)/C=C/C(=NOCC(=O)N1CCCCC1)C(C)C(O)C(C)C1OC(=O)/C(OC)=C/C(C)=C/C(C)C(O)C(CC)C(O)C(C)C/C(C)=C/C=C/C1OC (stereo in doubt) | false
C/C=C/C(O)C(C)/C=C/C(=NOCC(=O)O)C(C)C(O)C(C)C1OC(=O)/C(OC)=C/C(C)=C/C(C)C(O)C(CC)C(O)C(C)C/C(C)=C/C=C/C1OC (stereo in doubt) | false
C/C=C/C(O)C(C)/C=C/C(=NOCC(=O)N1CCC(N2CCCCC2)CC1)C(C)C(O)C(C)C1OC(=O)/C(OC)=C/C(C)=C/C(C)C(O)C(CC)C(O)C(C)C/C(C)=C/C=C/C1OC (stereo in doubt) | false

====

# System: IL-6
# experiment.summary: Cytokine release assay in hPBMCs: IL-6
# Type: cell-based
# test.settings: Homo sapiens; Table 4: mitogen stimulated production from hPBMC's; read-out: IL-6 (IC50 μM)

compound | tested.system | IC50
C/C=C/C(O)C(C)/C=C/C(=N\O)C(C)C(O)C(C)C1OC(=O)/C(OC)=C/C(C)=C/C(C)C(O)C(CC)C(O)C(C)C/C(C)=C/C=C/C1OC (stereo not shown) [Compound of example 7] | IL-6 | 7 pM
